Sourced from patent EP0802730B1

Tested on: Whitefly (BT) (Bemisia tabaci), susceptible strain (SUD-S)
PROTOCOL TEXT: Whitefly residual film vial test, susceptible strain SUD-S
Format: in vivo
REPORTED CONDITIONS: 48 h, Tables 10, 13, 14, susceptible strain, NA = lack of detectable activity, read-out: BT LC50 (ppm/insect)
METRIC: LC50

{"COMPOUND": "CC(C)(C)CCCC1=C(O)C(=O)c2ccccc2C1=O", "ASSAYED SYSTEM": "Whitefly (BT) (Bemisia tabaci), susceptible strain (SUD-S)", "RESULT": "16 µg/mL"}
{"COMPOUND": "CC(C)(C)C=CCCCCC1=C(O)C(=O)c2ccccc2C1=O", "ASSAYED SYSTEM": "Whitefly (BT) (Bemisia tabaci), susceptible strain (SUD-S)", "RESULT": "~100 µg/mL"}
{"COMPOUND": "CC(C)(C)CCC1=C(O)C(=O)c2ccccc2C1=O", "ASSAYED SYSTEM": "Whitefly (BT) (Bemisia tabaci), susceptible strain (SUD-S)", "RESULT": "~7 µg/mL"}
{"COMPOUND": "C=CC1(C2=C(O)C(=O)c3ccccc3C2=O)CCCC1", "ASSAYED SYSTEM": "Whitefly (BT) (Bemisia tabaci), susceptible strain (SUD-S)", "RESULT": "~50 µg/mL"}
{"COMPOUND": "CCCCCC1=C(O)C(=O)c2ccccc2C1=O [-(CH2)4CH3, reference compound]", "ASSAYED SYSTEM": "Whitefly (BT) (Bemisia tabaci), susceptible strain (SUD-S)", "RESULT": "17 µg/mL"}
{"COMPOUND": "CCCCC1=C(O)C(=O)c2ccccc2C1=O [-(CH2)3CH3, reference compound]", "ASSAYED SYSTEM": "Whitefly (BT) (Bemisia tabaci), susceptible strain (SUD-S)", "RESULT": "13 µg/mL"}
{"COMPOUND": "CC(=O)OC1=C(CC2(C)CCCCC2)C(=O)c2ccccc2C1=O", "ASSAYED SYSTEM": "Whitefly (BT) (Bemisia tabaci), susceptible strain (SUD-S)", "RESULT": "5.1 µg/mL"}
{"COMPOUND": "CCCCCCCCCCCC1=C(O)C(=O)c2ccccc2C1=O [-(CH2)10CH3, reference compound]", "ASSAYED SYSTEM": "Whitefly (BT) (Bemisia tabaci), susceptible strain (SUD-S)", "RESULT": "> 100 µg/mL"}
{"COMPOUND": "CC1(C2=C(O)C(=O)c3ccccc3C2=O)CCCC1", "ASSAYED SYSTEM": "Whitefly (BT) (Bemisia tabaci), susceptible strain (SUD-S)", "RESULT": "33 µg/mL"}
{"COMPOUND": "CCCCCCC1=C(O)C(=O)c2ccccc2C1=O [-(CH2)5CH3, reference compound]", "ASSAYED SYSTEM": "Whitefly (BT) (Bemisia tabaci), susceptible strain (SUD-S)", "RESULT": "9.4 µg/mL"}
{"COMPOUND": "O=C1C(O)=C(C2(C(F)(F)F)CCCCC2)C(=O)c2ccccc21", "ASSAYED SYSTEM": "Whitefly (BT) (Bemisia tabaci), susceptible strain (SUD-S)", "RESULT": "24 µg/mL"}
{"COMPOUND": "CCCCCCCCCCC1=C(O)C(=O)c2ccccc2C1=O [-(CH2)9CH3, reference compound]", "ASSAYED SYSTEM": "Whitefly (BT) (Bemisia tabaci), susceptible strain (SUD-S)", "RESULT": "> 100 µg/mL"}
{"COMPOUND": "CC1(CC2=C(O)C(=O)c3ccccc3C2=O)CCCCC1", "ASSAYED SYSTEM": "Whitefly (BT) (Bemisia tabaci), susceptible strain (SUD-S)", "RESULT": "3.6 µg/mL"}
{"COMPOUND": "CC(C)(C)C=CCCCC1=C(O)C(=O)c2ccccc2C1=O", "ASSAYED SYSTEM": "Whitefly (BT) (Bemisia tabaci), susceptible strain (SUD-S)", "RESULT": "~60 µg/mL"}
{"COMPOUND": "CC1(C2=C(O)C(=O)c3ccccc3C2=O)CCCCC1", "ASSAYED SYSTEM": "Whitefly (BT) (Bemisia tabaci), susceptible strain (SUD-S)", "RESULT": "0.1 µg/mL"}
{"COMPOUND": "CCC1(C2=C(O)C(=O)c3ccccc3C2=O)CCCCC1", "ASSAYED SYSTEM": "Whitefly (BT) (Bemisia tabaci), susceptible strain (SUD-S)", "RESULT": "2.9 µg/mL"}
{"COMPOUND": "CCCC1=C(O)C(=O)c2ccccc2C1=O [-(CH2)2CH3, reference compound]", "ASSAYED SYSTEM": "Whitefly (BT) (Bemisia tabaci), susceptible strain (SUD-S)", "RESULT": "80 µg/mL"}
{"COMPOUND": "CC(C)(C)C=CC1=C(O)C(=O)c2ccccc2C1=O", "ASSAYED SYSTEM": "Whitefly (BT) (Bemisia tabaci), susceptible strain (SUD-S)", "RESULT": "17 µg/mL"}
{"COMPOUND": "CC(C)(C)CCCCCC1=C(O)C(=O)c2ccccc2C1=O", "ASSAYED SYSTEM": "Whitefly (BT) (Bemisia tabaci), susceptible strain (SUD-S)", "RESULT": "21 µg/mL"}
{"COMPOUND": "CCCCCCCCC1=C(O)C(=O)c2ccccc2C1=O [-(CH2)7CH3, reference compound]", "ASSAYED SYSTEM": "Whitefly (BT) (Bemisia tabaci), susceptible strain (SUD-S)", "RESULT": "19 µg/mL"}
{"COMPOUND": "CC(=O)OC1=C(CCC(C)(C)C)C(=O)c2ccccc2C1=O", "ASSAYED SYSTEM": "Whitefly (BT) (Bemisia tabaci), susceptible strain (SUD-S)", "RESULT": "2.1 µg/mL"}
{"COMPOUND": "C=CC1(C2=C(O)C(=O)c3ccccc3C2=O)CCCCC1", "ASSAYED SYSTEM": "Whitefly (BT) (Bemisia tabaci), susceptible strain (SUD-S)", "RESULT": "0.9 µg/mL"}
{"COMPOUND": "CC(C)(C)CCCCCCC1=C(O)C(=O)c2ccccc2C1=O", "ASSAYED SYSTEM": "Whitefly (BT) (Bemisia tabaci), susceptible strain (SUD-S)", "RESULT": "13 µg/mL"}
{"COMPOUND": "CCCCCCCCCCCCC1=C(O)C(=O)c2ccccc2C1=O [-(CH2)11CH3, reference compound]", "ASSAYED SYSTEM": "Whitefly (BT) (Bemisia tabaci), susceptible strain (SUD-S)", "RESULT": "> 100 µg/mL"}
{"COMPOUND": "CC(C)(C)CC1=C(O)C(=O)c2ccccc2C1=O", "ASSAYED SYSTEM": "Whitefly (BT) (Bemisia tabaci), susceptible strain (SUD-S)", "RESULT": "~12 µg/mL"}
{"COMPOUND": "CC(C)(C)CCCCC1=C(O)C(=O)c2ccccc2C1=O", "ASSAYED SYSTEM": "Whitefly (BT) (Bemisia tabaci), susceptible strain (SUD-S)", "RESULT": "~60 µg/mL"}
{"COMPOUND": "CC1(C2=C(O)C(=O)c3ccccc3C2=O)C=CCCC1 (stereo not shown)", "ASSAYED SYSTEM": "Whitefly (BT) (Bemisia tabaci), susceptible strain (SUD-S)", "RESULT": "4.7 µg/mL"}
{"COMPOUND": "C=CC(C)(C)CCC1=C(O)C(=O)c2ccccc2C1=O", "ASSAYED SYSTEM": "Whitefly (BT) (Bemisia tabaci), susceptible strain (SUD-S)", "RESULT": "16 µg/mL"}
